- Test system: NCI-H196 complex spheroid viability
- assayMethodText: Anticancer human tumor NCI-H196 cell line growth inhibition [LSD1];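 also: spheroids exposed to agents for 7 days before readout; 100% = DMSO vehicle control viability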
- studyConditions: second compound 0.316 µM; first compound 0.1 µM; active compounds read low
Measured viability, T/C of individual entries
measureName: viability, T/C (%)

- compound: "CC1(C)CCC(CN2CCN(c3ccc(C(=O)NS(=O)(=O)c4ccc(NCC5CCOCC5)c([N+](=O)[O-])c4)c(Oc4cnc5[nH]ccc5c4)c3)CC2)=C(c2ccc(Cl)cc2)C1 + NC1CCC(NC2CC2c2ccccc2)CC1"
  unitString: "%"
  assayResult: 106
- compound: "Nc1ncn(C2CC(O)C(CO)O2)c(=O)n1 (stereo not drawn) + NC1CC1c1ccc(-c2cccc(O)c2)cc1"
  unitString: "%"
  assayResult: 89
- compound: "Cn1ncnc1C1c2n[nH]c(=O)c3cc(F)cc(c23)NC1c1ccc(F)cc1 (stereo not drawn) + NC1CC1c1ccc(-c2cccc(O)c2)cc1"
  unitString: "%"
  assayResult: 106

Data provenance: PubChem BioAssay AID1918958
